Biological target: JAK2 (Homo sapiens, UniProt O60674)
Construct: host or cells: baculovirus expression system
Sequence (O60674 whole entry): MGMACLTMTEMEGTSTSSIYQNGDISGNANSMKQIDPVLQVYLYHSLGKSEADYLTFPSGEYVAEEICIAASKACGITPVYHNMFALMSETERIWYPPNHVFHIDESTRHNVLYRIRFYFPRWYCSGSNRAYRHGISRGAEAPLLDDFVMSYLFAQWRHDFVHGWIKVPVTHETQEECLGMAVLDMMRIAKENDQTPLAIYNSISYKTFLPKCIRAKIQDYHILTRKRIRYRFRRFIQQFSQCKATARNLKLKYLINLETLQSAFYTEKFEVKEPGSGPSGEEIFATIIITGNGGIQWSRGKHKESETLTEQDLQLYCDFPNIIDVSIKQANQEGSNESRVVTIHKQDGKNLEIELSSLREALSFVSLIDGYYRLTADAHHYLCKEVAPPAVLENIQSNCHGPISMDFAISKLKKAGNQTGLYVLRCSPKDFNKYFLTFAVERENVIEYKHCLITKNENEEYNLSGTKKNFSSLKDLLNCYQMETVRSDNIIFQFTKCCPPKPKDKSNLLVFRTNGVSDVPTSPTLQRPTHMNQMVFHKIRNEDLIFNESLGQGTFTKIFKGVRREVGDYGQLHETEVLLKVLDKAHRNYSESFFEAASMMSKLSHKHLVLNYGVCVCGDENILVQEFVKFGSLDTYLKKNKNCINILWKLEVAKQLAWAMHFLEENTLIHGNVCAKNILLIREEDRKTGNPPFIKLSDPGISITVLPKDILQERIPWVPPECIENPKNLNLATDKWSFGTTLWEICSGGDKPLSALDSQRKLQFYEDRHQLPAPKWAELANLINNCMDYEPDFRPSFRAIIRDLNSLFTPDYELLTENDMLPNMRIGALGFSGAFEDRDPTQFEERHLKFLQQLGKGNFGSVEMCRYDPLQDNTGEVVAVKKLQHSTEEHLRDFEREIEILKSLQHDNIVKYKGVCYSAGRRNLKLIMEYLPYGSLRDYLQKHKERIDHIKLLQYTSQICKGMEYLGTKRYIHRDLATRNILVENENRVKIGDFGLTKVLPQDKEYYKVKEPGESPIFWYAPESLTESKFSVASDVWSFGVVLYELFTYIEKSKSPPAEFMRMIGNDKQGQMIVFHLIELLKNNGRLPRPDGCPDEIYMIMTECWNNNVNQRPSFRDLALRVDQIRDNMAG
Test: Recombinant Human JAK2 Kinase Assay (TRF)
Assay type: biochemical
Details: JAK2 kinase inhibition, 0.2 μM ATP; read-out: JAK2 Potency
pIC50: −log10 of the molar value.
QUANTITY_MEASURED: pIC50

Known pIC50 results, listed for orientation:
1) CN1CCN(c2cccc(Nc3ncc4ccc(-c5cnn(S(C)(=O)=O)c5)n4n3)c2)CC1; > 7.00
2) COc1cc(C2CCN(CC3CCN3C)CC2)ccc1Nc1ncc2ccc(-c3ccccc3N(C)S(C)(=O)=O)n2n1 (racemic); 5.00 to 6.00
3) COc1cc(C2CCN(CCO)CC2)ccc1Nc1ncc2ccc(-c3cccc(S(=O)(=O)NC4CC4)c3)n2n1; 6.00 to 7.00

get_value(item= `COc1cc(C2CCN(C[C@H](O)CO)CC2)ccc1Nc1ncc2ccc(-c3ccccc3OC)n2n1` , readout=pIC50) returns 6.00 to 7.00

get_value(item= `CS(=O)(=O)c1cccc(-c2ccc3cnc(Nc4ccc(F)c(Cl)c4)nn23)c1` , readout=pIC50) returns > 7.00

get_value(item= `Cc1cc(-c2ccc3cnc(Nc4ccc(N5CCN(C)CC5)cc4)nn23)cnc1F` , readout=pIC50) returns > 7.00

get_value(item= `CN1CCOc2ccc(Nc3ncc4ccc(-c5cccnc5)n4n3)cc21` , readout=pIC50) returns > 7.00

get_value(item= `CS(=O)(=O)c1ccc(-c2ccc3cnc(Nc4ccc(C5CCN(CCO)CC5)cc4)nn23)cc1` , readout=pIC50) returns > 7.00

get_value(item= `CN1CCOc2ccc(Nc3ncc4ccc(-c5cccc(S(=O)(=O)NC(C)(C)C)c5)n4n3)cc21` , readout=pIC50) returns > 7.00

get_value(item= `CN1CCN(c2cccc(Nc3ncc4ccc(-c5cnn(CC(N)=O)c5)n4n3)c2)CC1` , readout=pIC50) returns > 7.00

get_value(item= `COc1cc(C(=O)N2CCN(C)CC2)ccc1Nc1ncc2ccc(-c3ccccc3OC)n2n1` , readout=pIC50) returns 6.00 to 7.00

get_value(item= `Cn1cc(-c2ccc3cnc(Nc4cccc(-n5cccn5)c4)nn23)cn1` , readout=pIC50) returns > 7.00

get_value(item= `O=S(=O)(c1cccc(-c2ccc3cnc(Nc4ccc(-c5cccnc5)cc4)nn23)c1)N1CCCC1` , readout=pIC50) returns > 7.00

get_value(item= `COc1cc(N2CCC(N3CCOCC3)CC2)ccc1Nc1ncc2ccc(-c3c(OC)cccc3OC)n2n1` , readout=pIC50) returns 5.00 to 6.00

get_value(item= `COc1ccccc1-c1ccc2cnc(Nc3ccc(N4CCOCC4)cn3)nn12` , readout=pIC50) returns > 7.00
